# target.or.test.system: T1, CD123 (target of Example 19) (Homo sapiens (Human), UniProt P26951 19-305, limits assumed)
# T1 sequence: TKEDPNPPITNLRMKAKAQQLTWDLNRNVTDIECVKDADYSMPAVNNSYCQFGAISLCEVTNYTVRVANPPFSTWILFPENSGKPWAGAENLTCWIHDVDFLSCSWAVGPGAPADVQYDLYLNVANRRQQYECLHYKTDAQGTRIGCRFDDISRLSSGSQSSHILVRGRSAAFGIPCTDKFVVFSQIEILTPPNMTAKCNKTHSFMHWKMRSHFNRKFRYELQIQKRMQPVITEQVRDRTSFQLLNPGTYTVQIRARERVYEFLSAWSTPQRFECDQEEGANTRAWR
# assay.details: library selection; assay not described
readout.label: binding result

> print(dat)
                                     binder  data.value
1  SEQ ID NO 125 (designed binder) MGSWSEFHVRLDAIYARLDALGGSEAELAAFEKEIAAFESELQAYKGKGNPEVERLREWAANIRRELQAYRHN       binds
2  SEQ ID NO 103 (designed binder) MGSWIEFEVRLDAIYNRLAALGGSEAELAAFEKEIAAFESELQAYKGKGNPEVERLRRYAANIRHELQAYRHN       binds
3  SEQ ID NO 84 (designed binder) MGSWYMFKEELADIKWYLEALGGSEAELAWFEDDIAGFEWDLQAYKGKGNPEVEALRKEAAAIRDELQAYRHN       binds
